# MEASUREMENT_DESCRIPTION: MM1S myeloma cell viability, profiling panel, resazurin fluorescence, basal, 24 h, PK04 Diversity Set (AID 1174);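 further: MM1S multiple myeloma cell line; test concentration not given here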
# MEASUREMENT_CONTEXT: higher = more signal, called active from +8 up or from −8 down

MOLECULE: CC(C)C(=O)N[C@@H]1CCCN1C(=O)C=Cc1ccccc1
z-score: -0.0492
//
MOLECULE: C=C(C)C(=O)OC[C@@H]1CN2[C@@H](CC[C@@H](C)[C@@H]2c2ccc(Br)cc2)C(=O)O1
z-score: 0.155
//
MOLECULE: O=C1[C@H]2[C@H]3[C@H](O)[C@H](O)CC(=NOCc4ccccc4)[C@H]3CC[C@H]2C(=O)N1Cc1ccccc1
z-score: 1.58
//
MOLECULE: O=C(NN=C1C[C@@H](O)[C@@H](O)[C@@H]2[C@@H]3C(=O)N(Cc4ccc5c(c4)OCO5)C(=O)[C@@H]3CC[C@H]12)OCc1ccccc1
z-score: -0.203
//
MOLECULE: Cc1cc2c(nc1C)CCCN2CC(C)ON=C[C@@H](C)[C@H](OCc1ccccc1)C(C)C (stereo not given in full)
z-score: -0.567
//
MOLECULE: CC(C)=CCCC(C)=CCON=C1C[C@@H](O)[C@@H](O)[C@@H]2[C@@H]3C(=O)N([C@@H](C)c4ccccc4)C(=O)[C@@H]3CC[C@H]12
z-score: -0.339
//
MOLECULE: CCOC(=O)[C@H](Cc1ccccc1)NC(=O)CCC1CC(OC(=O)NCc2cccc3ccccc23)CC2(CCCC(COC(=O)NCCCN3CCCC3=O)O2)O1 (stereo not given in full)
z-score: 1.07
//
MOLECULE: CO[C@@H]1C=CCC(=O)N2CCC[C@H]2C(=O)OC[C@H](C)C(=O)OC[C@H]1C
z-score: -0.694
//
MOLECULE: CC(C)=NO[C@@H](C)c1cc(-c2c(C)cc(C)cc2C)no1
z-score: 0.672
//
MOLECULE: CCOC(=O)CCN1C(=O)[C@H]2[C@H]3[C@H](O)[C@H](O)CC(=NNC(=O)OCC)[C@@H]3CC[C@H]2C1=O
z-score: -0.994
//
MOLECULE: CCCNC(=O)OC[C@H]1O[C@H](CCON=C(C)CCC(=O)OC[C@H]2O[C@H](C#Cc3ccccc3)C=C[C@@H]2Oc2ccc(C)cc2)C=C[C@@H]1Oc1ccc(OC)cc1
z-score: -0.0269
//
MOLECULE: C#CCCCON=C1C[C@@H](O)[C@@H](O)[C@@H]2[C@@H]3C(=O)N(C4CCCCC4)C(=O)[C@@H]3CC[C@H]12
z-score: -2.78
//
MOLECULE: Cc1ccc(S(=O)(=O)N[C@H]2COC(=O)[C@@H](C)COC(=O)[C@H](C)NC(=O)CC=C[C@H]2C)cc1
z-score: 0.799
//
MOLECULE: COc1ccc(COC(=O)NN=C2C[C@@H](O)[C@@H](O)[C@@H]3[C@@H]4C(=O)N(C(C)(C)C)C(=O)[C@@H]4CC[C@H]23)cc1
z-score: -0.18
//
MOLECULE: CO[C@H]1COC(=O)CC=C[C@@H](C)COC(=O)[C@@H](OCc2ccccc2)C=C[C@@H]1C
z-score: 0.155
